# method-notes: Tissue distribution study in rabbits after oral Panax notoginseng extract with or without Borneol
# Assay type: in vivo, New Zealand rabbits
# experimental-context: New Zealand, rabbit, lung, po, 3 mL·kg^−1, 0.5 h, oral Panax notoginseng, read-out: Concentration in lung
readout: concentration at 0.5 h (ng/g)
Kindly answer with a numeric value in ng/g, unit omitted.

Fill in: concentration at 0.5 h of CC(C)=CCC[C@](C)(O[C@@H]1O[C@H](CO)[C@@H](O)[C@H](O)[C@H]1O)[C@H]1CC[C@]2(C)[C@@H]1[C@H](O)C[C@@H]1[C@@]3(C)CC[C@H](O)C(C)(C)[C@@H]3[C@@H](O[C@@H]3O[C@H](CO)[C@@H](O)[C@H](O)[C@H]3O[C@@H]3O[C@@H](C)[C@H](O)[C@@H](O)[C@H]3O)C[C@]12C [GRe, ginsenoside Re] is ___
700

Fill in: concentration at 0.5 h of CC(C)=CCC[C@](C)(O[C@@H]1O[C@H](CO)[C@@H](O)[C@H](O)[C@H]1O)[C@H]1CC[C@]2(C)[C@@H]1[C@H](O)C[C@@H]1[C@@]3(C)CC[C@H](O)C(C)(C)[C@@H]3[C@@H](O[C@@H]3O[C@H](CO)[C@@H](O)[C@H](O)[C@H]3O)C[C@]12C [GRg1, ginsenoside Rg1] is ___
14300
